SYSTEM NAME: isomerase (Mus musculus, UniProt Q91ZQ5)
Construct: The recovery of 11-cis-retinal after bleaching can be used to estimate the activity of isomerase in vivo; from tissue; host or cells: eyes of living CD-1 and Balb/c male mice
Sequence (Q91ZQ5 whole entry): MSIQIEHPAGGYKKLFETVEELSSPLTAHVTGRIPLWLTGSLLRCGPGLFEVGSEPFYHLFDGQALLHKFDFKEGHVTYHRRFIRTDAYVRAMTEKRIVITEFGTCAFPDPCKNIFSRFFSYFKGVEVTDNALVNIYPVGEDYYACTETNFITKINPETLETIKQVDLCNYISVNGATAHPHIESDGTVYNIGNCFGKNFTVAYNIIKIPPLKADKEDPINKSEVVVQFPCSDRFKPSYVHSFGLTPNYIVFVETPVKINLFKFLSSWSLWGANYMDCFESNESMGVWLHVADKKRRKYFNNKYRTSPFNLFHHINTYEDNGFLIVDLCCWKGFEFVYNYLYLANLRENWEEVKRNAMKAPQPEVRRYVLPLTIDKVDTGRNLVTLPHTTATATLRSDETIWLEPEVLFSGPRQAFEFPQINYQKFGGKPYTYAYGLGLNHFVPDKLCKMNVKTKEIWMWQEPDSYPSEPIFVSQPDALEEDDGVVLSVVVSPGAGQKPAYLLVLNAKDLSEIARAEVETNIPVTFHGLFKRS
EXPERIMENTAL PROTOCOL: In vivo murine isomerase assay (recovery of 11-cis-retinal after photobleaching)
Set-up: species or system mice
EXPERIMENTAL PARAMETERS: mouse; 5 mg/kg, 4 h; read-out: % Inibition
Each entry gets No if its inhibition in vivo at 5 mg/kg stays under 60%, and Yes if its inhibition in vivo at 5 mg/kg is 60% or above.

Reference set (4 entries):
- COMPOUND: "CCCC(C#Cc1cccc(CCCN)c1)(CCC)OC [Example 4]"
  SYSTEM NAME: "isomerase (Mus musculus, UniProt Q91ZQ5)"
  LABEL: "Yes"
- COMPOUND: "CCC(O)(C#Cc1cccc(OCCN)c1)CC [Example 27]"
  SYSTEM NAME: "isomerase (Mus musculus, UniProt Q91ZQ5)"
  LABEL: "Yes"
- COMPOUND: "CCCC(O)C#Cc1cccc(CCCN)c1 (centres unmarked) [Example 8, 1-(3-(3-Aminopropyl)phenyl)hex-1-yn-3-ol]"
  SYSTEM NAME: "isomerase (Mus musculus, UniProt Q91ZQ5)"
  LABEL: "No"
- COMPOUND: "NCCCc1cccc(C#CC2(O)CCCCC2)c1 [Example 11]"
  SYSTEM NAME: "isomerase (Mus musculus, UniProt Q91ZQ5)"
  LABEL: "No"

Input line: Is inhibition in vivo at 5 mg/kg at least 60%? Consider NCCCc1cccc(C#Cc2ccccc2)c1 [Example 37]
Output line: Yes

Input line: Is inhibition in vivo at 5 mg/kg at least 60%? Consider NCCCc1cccc(C#CC2CCCC2)c1 [Example 38]
Output line: No

Input line: Is inhibition in vivo at 5 mg/kg at least 60%? Consider NCCCc1cccc(C#CC2(O)CCCC2)c1 [Example 24]
Output line: No

Input line: Is inhibition in vivo at 5 mg/kg at least 60%? Consider CC(C)(O)C#Cc1cccc(CCCN)c1 [Example 7]
Output line: No

###

SYSTEM NAME: isomerase (Mus musculus, UniProt Q91ZQ5)
Construct: The recovery of 11-cis-retinal after bleaching can be used to estimate the activity of isomerase in vivo; from tissue; host or cells: eyes of living CD-1 and Balb/c male mice
EXPERIMENTAL PROTOCOL: In vivo murine isomerase assay (recovery of 11-cis-retinal after photobleaching)
Parameters: species or system mice
EXPERIMENTAL PARAMETERS: mouse; 1 mg/kg, 4 h; read-out: % Inibition
Each entry gets false if its inhibition in vivo at 1 mg/kg stays under 20%, and true if its inhibition in vivo at 1 mg/kg is 20% or above.

- COMPOUND: "CC(C)C(O)(C#Cc1cccc(CCCN)c1)C(C)C [Example 32]"
  LABEL: "true"
- COMPOUND: "NCCOc1cccc(C#CC2(O)CCCC2)c1 [Example 31]"
  LABEL: "false"
- COMPOUND: "NCCCc1cccc(C#C[C@@H](O)c2ccccc2)c1 [Example 26]"
  LABEL: "false"

Input line: Is inhibition in vivo at 1 mg/kg at least 20%? Consider NCCCc1cccc(C#CC2CCCC2)c1 [Example 38]
Output line: false

Input line: Is inhibition in vivo at 1 mg/kg at least 20%? Consider NCCCc1cccc(C#CC2(O)CCCC2)c1 [Example 24]
Output line: false

Input line: Is inhibition in vivo at 1 mg/kg at least 20%? Consider CCCC(C#Cc1cccc(CCCN)c1)(CCC)OC [Example 4]
Output line: true

Input line: Is inhibition in vivo at 1 mg/kg at least 20%? Consider NCCOc1cccc(C#Cc2cccnc2)c1 [Example 62]
Output line: false

Input line: Is inhibition in vivo at 1 mg/kg at least 20%? Consider NCCOc1cccc(C#CC2(O)CCSCC2)c1 [Example 55]
Output line: false

Input line: Is inhibition in vivo at 1 mg/kg at least 20%? Consider NCCC(O)c1cccc(C#CC2CCCC2)c1 (centres unmarked) [Example 47]
Output line: true

Input line: Is inhibition in vivo at 1 mg/kg at least 20%? Consider NCCOc1cccc(C#CC2(O)CCCCC2)c1 [Example 57]
Output line: false

Input line: Is inhibition in vivo at 1 mg/kg at least 20%? Consider NCCC(O)c1cccc(C#CC2(O)CCCCCC2)c1 (centres unmarked) [Example 59]
Output line: true

Input line: Is inhibition in vivo at 1 mg/kg at least 20%? Consider NCCCc1cccc(C#Cc2ccncc2)c1 [Example 63]
Output line: false

Input line: Is inhibition in vivo at 1 mg/kg at least 20%? Consider NCCC(O)c1cccc(C#CCCCCO)c1 (centres unmarked) [Example 50]
Output line: false

Input line: Is inhibition in vivo at 1 mg/kg at least 20%? Consider NCCC(O)c1cccc(C#CCCO)c1 (centres unmarked) [Example 51]
Output line: false

Input line: Is inhibition in vivo at 1 mg/kg at least 20%? Consider NCCC(O)c1cccc(C#CC2CCCCC2)c1 (centres unmarked) [Example 52]
Output line: true

Input line: Is inhibition in vivo at 1 mg/kg at least 20%? Consider CC(=O)NCCCc1cccc(C#CC2(O)CCCCC2)c1 [Example 60]
Output line: false

Input line: Is inhibition in vivo at 1 mg/kg at least 20%? Consider NCCC(O)c1cccc(C#CC2(O)CCCCC2)c1 (centres unmarked) [Example 99]
Output line: true

Input line: Is inhibition in vivo at 1 mg/kg at least 20%? Consider NCCOc1cccc(C#CC2CCCC2)c1 [Example 79]
Output line: false

Input line: Is inhibition in vivo at 1 mg/kg at least 20%? Consider CC(C)(C)C(C)(O)C#Cc1cccc(CCCN)c1 (centres unmarked) [Example 25]
Output line: false

Input line: Is inhibition in vivo at 1 mg/kg at least 20%? Consider NCCOc1cccc(C#CCCCCO)c1 [Example 74, 6-(3-(2-Aminoethoxy)phenyl)hex-5-yn-1-ol]
Output line: false

Input line: Is inhibition in vivo at 1 mg/kg at least 20%? Consider COc1ccccc1C#Cc1cccc(C(O)CCN)c1 (centres unmarked) [Example 54]
Output line: true

Input line: Is inhibition in vivo at 1 mg/kg at least 20%? Consider CC(C)C(O)(C#Cc1cccc(OCCN)c1)C(C)C [Example 28]
Output line: true

Input line: Is inhibition in vivo at 1 mg/kg at least 20%? Consider NCCCc1cccc(C#Cc2ccccc2)c1 [Example 37]
Output line: true
